biological target: T1, human GM-CSF (granulocyte macrophage-colony stimulating factor) (human, UniProt P04141 18-144); experiment: SPR (ProteOn), mAb captured on protein A, GM-CSF as analyte, Langmuir fit
T1 construct: Soluble cytokine used in ELISA, SPR, TF-1 bioassay and immune complex formation; also called recombinant GM-CSF
T1 sequence (P04141 18-144 limits assumed): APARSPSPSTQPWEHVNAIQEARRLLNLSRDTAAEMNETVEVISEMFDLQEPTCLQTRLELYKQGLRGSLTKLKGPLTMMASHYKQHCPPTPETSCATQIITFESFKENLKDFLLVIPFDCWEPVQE
Outcome measure: kon

What kon value was documented for this binder, GCE536 (antibody, human IgG1, kappa, V domains shown, also called GCE536 antibody) VH: QLQLVQSGTEVKKPGASVKVSCKSSGYVFTSYYLVWVRQAPGQGLEWMATISPGDVNTSYEQRFQGRVTVTTDASTNTVDMELRSLRSEDTAVYYCARGPRSKPPYLYFALDVWGQGTAVTVSS VL: EIVLTQSPGTLSLSPGETAILSCRASQSVSSSLLAWYQQKPGQAPRLLIYGASNRATGIRGRFSGSGSGTDFTLTISRLEPEDFVLYYCQHYGSRVTFGQGTKLEIKR ? 660000 M⁻¹ s⁻¹

Where do these numbers come from? They come from patent US20200362026A1.
